# System: HCV genotype 1b replicon
# procedure details: HCV replicon assay (HCV 1b_Huh-Luc/Neo-ET cell line, luciferase readout)
# Type: cell-based
# measurement context: Hepatitis C virus; bicistronic genotype 1b replicon in Huh 7 cells, 72 h incubation, luciferase enzyme activity; read-out: Inhibition of HCV genotype 1b
pEC50: −log10 of the molar value.
measured parameter: pEC50

molecule=COC(=O)N[C@H](C(=O)N1CCC[C@H]1CNC(=O)c1ccc(-c2ccc(-c3cnc([C@@H]4CCCN4C(=O)[C@@H](NC(=O)OC)C(C)C)[nH]3)nc2)cc1)C(C)C assay_target="HCV genotype 1b replicon" experimental_value="8.00 to 9.00"
molecule=COC(=O)N[C@H](C(=O)N1CCC[C@H]1CNC(=O)c1ccc(-c2ccc(-c3cnc([C@@H]4CCCN4C(=O)[C@@H](NC(=O)OC)C(C)C)[nH]3)cn2)cc1)C(C)C assay_target="HCV genotype 1b replicon" experimental_value="> 9.00"
molecule="[2H]C([2H])([2H])C([2H])(C([2H])([2H])[2H])C([2H])(NC(=O)OC)C(=O)N1CCC[C@H]1c1ncc(-c2ccc(-c3ccc(CNC(=O)[C@@H]4CCCN4C(=O)[C@@]([2H])(NC(=O)OC)C([2H])(C([2H])([2H])[2H])C([2H])([2H])[2H])cc3)cc2)[nH]1 (stereo partly drawn)" assay_target="HCV genotype 1b replicon" experimental_value="8.00 to 9.00"
molecule=CC(C)(C)OC(=O)N[C@@H](C(=O)N1CCC[C@H]1C(=O)Nc1ccc(-c2ccc(-c3cnc([C@@H]4CCCN4C(=O)[C@H](NC(=O)OC(C)(C)C)c4ccccc4)[nH]3)cc2)cc1)c1ccccc1 assay_target="HCV genotype 1b replicon" experimental_value="> 9.00"
molecule=COC(=O)N[C@@H](C(=O)N1CCC[C@H]1c1ncc(-c2ccc(-c3ccc(C(=O)NC[C@@H]4CCCN4C(=O)[C@H](NC(=O)N4CCOCC4)c4ccccc4)cc3)cc2)[nH]1)c1ccccc1 assay_target="HCV genotype 1b replicon" experimental_value="> 9.00"
molecule=CC(C)[C@@H](NC(=O)C1CC1)C(=O)N1CCC[C@H]1C(=O)Nc1ccc(-c2ccc(-c3cnc([C@@H]4CCCN4C(=O)[C@H](NC(=O)C4CC4)C(C)C)[nH]3)cc2)cc1 assay_target="HCV genotype 1b replicon" experimental_value="8.00 to 9.00"
molecule=COC(=O)N[C@H](C(=O)N1CCC[C@H]1c1ncc(-c2ccc(Sc3cccc(-c4cnc([C@@H]5CCCN5C(=O)[C@@H](NC(=O)OC)C(C)C)[nH]4)c3)cc2)[nH]1)C(C)C assay_target="HCV genotype 1b replicon" experimental_value="> 9.00"
molecule=COC(=O)N[C@@H](C(=O)N1CCC[C@H]1C(=O)Nc1ccc(-c2ccc(-c3cnc([C@@H]4CCCN4C(=O)[C@@H](c4ccccc4)N(C)C)[nH]3)cc2)cc1)c1ccccc1 assay_target="HCV genotype 1b replicon" experimental_value="> 9.00"
molecule=O=C(N[C@@H](C(=O)N1CCC[C@H]1C(=O)NCc1ccc(-c2ccc(-c3cnc([C@@H]4CCCN4C(=O)[C@H](NC(=O)C4CC4)c4ccccc4)[nH]3)cc2)cc1)c1ccccc1)C1CC1 assay_target="HCV genotype 1b replicon" experimental_value="> 9.00"

Source of measurements: patent US20120040977A1
